Listed here: items and their measured T/C.
System: L1210 leukemia ip in BDF1 mice, survival T/C
Assay: NCI In Vivo Anticancer Drug Screen. Data for tumor model L1210 Leukemia (intraperitoneal) in B6D2F1 (BDF1) mice
Settings: endpoint: mean survival time; dose: 400.0 mg/kg/injection; schedule: Q01DX001 (ip); vehicle: saline; higher = longer survival
Toxic doses and inconclusive results are not listed.

Previously resolved entries follow.
(Q) For `CCOC(=O)c1sc2ccc([N+](=O)[O-])cc2c1C` , what is its reported T/C?
(A) 104 % of control

(Q) Now the same for `Cc1cc(=O)[nH]c(N2CCCCC2)n1`
(A) 101 % of control

(Q) Now the same for `N=C1N=C(N)CS1`
(A) 101 % of control

(Q) Now the same for `S=C(Nc1ccccc1)Nc1nccs1`
(A) 101 % of control

(Q) Now the same for `C/C=C/c1nc2c([nH]1)c(=O)n(C)c(=O)n2C`
(A) 98 % of control

(Q) Now the same for `O=C(/C=C/c1ccccc1)CC(=O)c1ccccc1.O=C(/C=C/c1ccccc1)CC(=O)c1ccccc1.[Cu]`
(A) 97 % of control

Others:
(Q) For `CC(=O)c1ccc2c(c1)Cc1ccccc1-2` , what is its reported T/C?
(A) 90 % of control

The reported measurements were obtained from PubChem BioAssay AID248.
